# Tested on: Mitogen-Activated Protein Kinase (MAPK or ERK)
# assay text: MAPK (ERK phosphorylation) activity screen of BRaf inhibitors of Formula (I) vs. reference C-1
# Assay type: cell-based
# test settings: MAPK activity of compound relative to reference compound C-1
Consider the following compounds; for each one, report its LUT/C1 MAPK Ratios.
Simply state the number, no unit and no words.

// compound C#Cc1cccc(Nc2nccc3c(Nc4ncccc4-c4ncnc5nc[nH]c45)c(C)ccc23)c1 [LUT-012] , assay Mitogen-Activated Protein Kinase (MAPK or ERK), LUT/C1 MAPK Ratios value: 0.7

With Mitogen-Activated Protein Kinase (MAPK or ERK) as the test system, Cc1ccc2c(Nc3cc(C(C)(C)C)nn3C)nccc2c1Nc1ncccc1-c1ncnc2nc[nH]c12 [LUT-013] showed LUT/C1 MAPK Ratios of 3.4

// compound Cc1ccc2c(Nc3ccc(I)cc3F)nccc2c1Nc1ncccc1-c1ncnc2nc[nH]c12 [LUT-016] , assay Mitogen-Activated Protein Kinase (MAPK or ERK), LUT/C1 MAPK Ratios value: 2.0

// returns LUT/C1 MAPK Ratios for Cc1ccc2c(Nc3ccc(F)c(Cl)c3)nccc2c1Nc1ncccc1-c1ncnc2[nH]cnc12 [LUT-015] with Mitogen-Activated Protein Kinase (MAPK or ERK); value = 2.1

LUT/C1 MAPK Ratios of Cc1ccc2c(Nc3cccc(OC(F)(F)F)c3)nccc2c1Nc1ncccc1-c1ncnc2[nH]cnc12 [LUT-014] , assay on Mitogen-Activated Protein Kinase (MAPK or ERK), is 2.9

Value sought: LUT/C1 MAPK Ratios, system Mitogen-Activated Protein Kinase (MAPK or ERK), item Cc1ccc2c(Nc3ccc(Cl)c(C(F)(F)F)c3)nccc2c1Nc1ncccc1-c1ncnc2nc[nH]c12 [LUT-017] . Result: 3.5

Item: Cc1ccc2c(Nc3cccc(S(N)(=O)=O)c3)nccc2c1Nc1ncccc1-c1ncnc2[nH]cnc12 [LUT-020] | System: Mitogen-Activated Protein Kinase (MAPK or ERK) | LUT/C1 MAPK Ratios: 1.0
